system: SNB-75 CNS; assay: NCI-60 one-dose screen, 48 h (100 = growth as untreated, 0 = no growth, -100 = all killed); settings: 10 µM unless noted
Compounds without any hit were thinned out: in the full panel of roughly 83,000, 20% have a hit.
Measured growth by item
readoutKind: growth (%)

>  <structureNotation>
COC(=O)/C(CCC=C(C)C)=C1\[C@@H](OC(C)=O)C[C@@]2(C)[C@H]1C/C(=N/O)[C@H]1[C@@]3(C)CC/C(=N\O)[C@@H](C)[C@@H]3CC[C@@]12C

>  <systemName>
SNB-75 CNS

>  <unitText>
%

>  <measurement>
86.9

$$$$
>  <structureNotation>
O=C(Nc1ccc(Nc2ccncc2)cc1)c1ccc(Nc2ccnc3ccc([N+](=O)[O-])cc23)cc1

>  <systemName>
SNB-75 CNS

>  <unitText>
%

>  <measurement>
97.8

$$$$
>  <structureNotation>
CCCCCCCCn1ccc2cc(NC(=O)CN3CCN(c4cc(C)nc(Cl)n4)CC3)ccc21

>  <systemName>
SNB-75 CNS

>  <unitText>
%

>  <measurement>
82.9

$$$$
>  <structureNotation>
CCCN(CCSSCCNc1nc(N(C)O)nc(N(C)O)n1)c1nc(N(C)O)nc(N(C)O)n1

>  <systemName>
SNB-75 CNS

>  <unitText>
%

>  <measurement>
73.8

$$$$
>  <structureNotation>
c1csc(-c2cn3nc(-c4c[nH]c5ccccc45)sc3n2)c1

>  <systemName>
SNB-75 CNS

>  <unitText>
%

>  <measurement>
-4.32

$$$$
>  <structureNotation>
COc1cc(/C=C2\C(=O)N(CCCOc3cc(O)c4c(=O)cc(-c5ccccc5)oc4c3)c3ccccc32)cc(OC)c1O

>  <systemName>
SNB-75 CNS

>  <unitText>
%

>  <measurement>
47.6

$$$$
>  <structureNotation>
COc1cc(/C=C/C(=O)c2cc(OC)c(OC)c(OC)c2)ccc1Oc1nc2c(c(=O)n(C)c(=O)n2C)n1C

>  <systemName>
SNB-75 CNS

>  <unitText>
%

>  <measurement>
31

$$$$
